experimental_protocol: Quantitative High-Throughput drug screen in 47 multiple myeloma cell lines against the NCATS MIPE library collection: OCIMY1_PLB cell viability assay (AID 1918979); further: nearly all actives have a fitted effect of over 35% in size
experimental_parameters: OCI-MY1 myeloma viability, CellTiter-Glo ATP, 48 h; series mostly up to 45.8 µM
Results filed as inconclusive are left out. Calls of active or inactive are those of the source. The call rests on the fitted dose curve; in most records, active means well fitted cell-killing curve with a large enough effect; inconclusive means small, poorly fitted or top-dose-only effect, or effect the other way; inactive means no such curve, though single readings can be large or run the other way.
Permitted responses: y = active, n = inactive

Dear all, I need the recorded test outcome for COc1ccc(C=Cc2cc(OC)c(OC)c(OC)c2)cc1O , thank you.
n

Subsequent entry: C#Cc1cccc(Nc2ncnc3cc(OC)c(OCCCCCCC(=O)NO)cc23)c1
y

Subsequent entry: CN1CCN(c2ccc3nc(-c4c(N)c5c(F)cccc5[nH]c4=O)[nH]c3c2)CC1
y

Subsequent entry: OCCCNc1cc(-c2ccnc(Nc3cccc(Cl)c3)n2)ccn1
y

Subsequent entry: O=C(CCCCCCNC(=O)c1cnc(N(c2ccccc2)c2ccccc2)nc1)NO
y

Subsequent entry: COc1cc2ncnc(Nc3ccc(F)c(Cl)c3)c2cc1NC(=O)C=CCN1CCCCC1
y

Subsequent entry: Cc1c(Cn2c(C)nc3c(C(=O)O)cc(N4CCOCC4)cc32)cccc1C(F)(F)F
n

Subsequent entry: CNC(=O)c1nn(C)c2c1C(C)(C)Cc1cnc(Nc3ccc(N4CCN(C)CC4)cc3)nc1-2
y

Subsequent entry: CC(C)c1nn(-c2c(Cl)cccc2Cl)c2nc(Cc3ccc(OCCO)cc3)[nH]c(=O)c12
y

Subsequent entry: CC(C)(O)c1cc2nc(-c3cnc(N)nc3)nc(N3CCOCC3)c2s1
y

Subsequent entry: COc1ccc(-c2cc3c(C)nc(N)nc3n(C3CCC(OCCO)CC3)c2=O)cn1 (stereo not given)
y

Subsequent entry: OCc1ccc(-c2ccc(-c3ccc(CO)s3)o2)s1
y

Subsequent entry: COc1cc(=C2C=c3ccccc3=N2)[nH]c1=Cc1[nH]c(C)cc1C
y

Subsequent entry: CN(C1CCc2c(c3ccccc3n2CC(=O)O)C1)S(=O)(=O)c1ccc(F)cc1 (stereo not given)
n

Subsequent entry: CC(C)c1ccc(Cn2ccc3c4c(N)nc(NC5CC5)nc4ccc32)cc1
y

Subsequent entry: CCn1nnc2c(N3CCOCC3)nc(-c3ccc(NC(=O)Nc4ccc(C(=O)N5CCN(C)CC5)cc4)cc3)nc21
y

Subsequent entry: COC(=O)C[C@](O)(CCCC(C)(C)O)C(=O)O[C@@H]1C(OC)=C[C@]23CCCN2CCc2cc4c(cc2[C@H]13)OCO4
n

Subsequent entry: CC(C)(C)c1cc(C(C)(C)C)c(NC(=O)c2c[nH]c3ccccc3c2=O)cc1O
n

Subsequent entry: O=C(NCCS(=O)(=O)c1ccc(C(F)(F)F)cn1)c1ccc(Cl)cc1
n

Subsequent entry: COCCn1c2c([n+](Cc3cnccn3)c1C)C(=O)c1ccccc1C2=O
y

Subsequent entry: Clc1ccc2ncc(-c3cccc(NC4CNC4)n3)n2c1
y

Subsequent entry: CC(C)Nc1cc(C(F)(F)F)cc2nc(NC(=O)c3cccnc3)nn12
n

Subsequent entry: Cc1cc(N2CCOCC2)cc2[nH]c(-c3c(NC[C@@H](O)c4cccc(Cl)c4)cc[nH]c3=O)nc12
y

Subsequent entry: C[C@]1(CO)CN(c2cc(C(=O)Nc3ccc4c(c3)-c3c(c(C(N)=O)nn3-c3ccc(F)cc3)CC4)c(Cl)cn2)C[C@@]1(C)CO
n

Subsequent entry: Cc1ccc(C(=O)Nc2cccc(C(F)(F)F)c2)cc1-c1ccc2nc(NCCN3CCOCC3)ncc2c1
y

Subsequent entry: O=C(Nc1cc(C(F)(F)F)cc(C(F)(F)F)c1)c1cc(Cl)ccc1O
y

Subsequent entry: Nc1ccccc1NC(=O)c1ccc(CNc2nccc(-c3cccnc3)n2)cc1
y

Subsequent entry: CN(c1ncccc1CNc1nc(Nc2ccc3c(c2)CC(=O)N3)ncc1C(F)(F)F)S(C)(=O)=O
y

Subsequent entry: O=C(Nc1cn[nH]c1-c1nc2ccc(CN3CCOCC3)cc2[nH]1)NC1CC1
y

Subsequent entry: COCCOc1ccc2c(c1)ncn2-c1ccc2cccc(N3CCC(N)CC3)c2n1
y
